Just for reference, patent US20230138395A1 is where these values come from.

Listed below: MFC90 values for each entry.
system: Fusarium strains; experiment: MFC determination, Table 17; format: cell-based, Fusarium spp.; settings: Fusarium strains (Table 17); kills 90% of strains

compound: OC(Cn1cncn1)(Cn1cncn1)c1ccc(F)cc1F [Fluconazole, fluconazole]
MFC90: > 64 µg/mL
--
compound: C[C@@H]1[C@H](O)[C@@H](C)/C=C/C=C/C=C/C=C/C=C/C=C/C=C/[C@H](O[C@@H]2O[C@H](C)[C@@H](O)[C@H](N)[C@@H]2O)C[C@@H]2O[C@](O)(C[C@@H](O)[C@H](O)CC[C@@H](O)C[C@@H](O)C[C@@H](O)CC(=O)O[C@H]1C)C[C@H](O)[C@H]2C [Compound 1A]
MFC90: > 4 µg/mL
--
compound: C[C@@H]1[C@H](O)[C@@H](C)/C=C/C=C/C=C/C=C/C=C/C=C/C=C/[C@H](O[C@@H]2O[C@H](C)[C@@H](O)[C@H](N)[C@@H]2O)C[C@@H]2O[C@](O)(C[C@@H](O)C[C@@H](O)[C@H](O)CC[C@@H](O)C[C@@H](O)CC(=O)O[C@H]1C)C[C@H](O)[C@H]2C(=O)O [Amphotericin B]
MFC90: 2 µg/mL
--
compound: C[C@@H](c1ncncc1F)[C@](O)(Cn1cncn1)c1ccc(F)cc1F [Voriconazole, voriconazole]
MFC90: > 32 µg/mL
--
compound: CC[C@H](C)C[C@H](C)CCCCCCCCC(=O)N[C@H]1C[C@@H](O)[C@@H](NCCN)NC(=O)[C@@H]2[C@@H](O)CCN2C(=O)[C@H]([C@H](O)CCN)NC(=O)[C@H]([C@H](O)[C@@H](O)c2ccc(O)cc2)NC(=O)[C@@H]2C[C@@H](O)CN2C(=O)[C@H]([C@@H](C)O)NC1=O [Caspofungin, caspofungin]
MFC90: > 32 µg/mL
